- Study target: T1, EsCas13d, nuclease-dead (Eubacterium siraeum, UniProt B0MS50, R295A;H300A;R849A;H854A)
- T1 sequence: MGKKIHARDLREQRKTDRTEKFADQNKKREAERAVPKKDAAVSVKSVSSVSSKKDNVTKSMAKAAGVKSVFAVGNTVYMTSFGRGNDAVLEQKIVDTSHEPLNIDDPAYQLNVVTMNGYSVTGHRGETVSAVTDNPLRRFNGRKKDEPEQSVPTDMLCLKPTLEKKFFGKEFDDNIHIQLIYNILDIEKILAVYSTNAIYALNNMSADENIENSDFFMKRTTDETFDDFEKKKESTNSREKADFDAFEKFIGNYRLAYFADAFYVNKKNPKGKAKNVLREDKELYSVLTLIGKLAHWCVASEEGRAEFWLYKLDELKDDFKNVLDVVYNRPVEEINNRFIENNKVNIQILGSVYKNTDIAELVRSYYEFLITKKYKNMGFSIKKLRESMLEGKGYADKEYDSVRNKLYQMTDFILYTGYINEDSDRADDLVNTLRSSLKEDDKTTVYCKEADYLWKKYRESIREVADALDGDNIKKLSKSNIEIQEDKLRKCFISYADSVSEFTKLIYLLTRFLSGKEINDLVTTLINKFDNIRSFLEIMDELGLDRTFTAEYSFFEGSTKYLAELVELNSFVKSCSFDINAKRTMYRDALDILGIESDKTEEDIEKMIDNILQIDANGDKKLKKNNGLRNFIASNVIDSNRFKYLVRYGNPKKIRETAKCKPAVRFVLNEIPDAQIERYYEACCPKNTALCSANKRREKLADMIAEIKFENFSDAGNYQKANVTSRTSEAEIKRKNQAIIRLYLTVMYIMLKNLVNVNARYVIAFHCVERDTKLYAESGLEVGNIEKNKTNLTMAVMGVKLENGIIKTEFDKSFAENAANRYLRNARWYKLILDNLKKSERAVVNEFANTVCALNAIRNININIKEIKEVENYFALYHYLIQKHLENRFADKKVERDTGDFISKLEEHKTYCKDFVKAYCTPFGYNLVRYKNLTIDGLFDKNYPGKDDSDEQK
- Assay remarks: crRNA (strand 1, pre-loaded); Mg2+; 40 mM Tris-HCl pH 7.5, 150 mM NaCl, 6 mM MgCl2, 1 mM DTT, 0.1% Tween-20, 0.2 mg/ml BSA; 25 C; 10 min per concentration, then washed
- Applied conditions: tags: His6-TwinStrep-SUMO cleaved; N-terminal SNAP kept (SNAP-Surface 488); label: 3' end held by stalled T7 RNA polymerase
Reported Kd by item:
Expressed in nM, but write only the number.

# example entries with known answers
Binder	Kd [nM]
target 3 insU 3' of 9,insC 3' of 8 (mixed) RNA 1: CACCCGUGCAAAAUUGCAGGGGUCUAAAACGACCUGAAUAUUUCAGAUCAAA RNA 2: GGGAAUGGAUCCACAUCUACGAAUUCGUUUUUGAUCUGAAAUAUUCUCAGGUCUGCAGAUCGGAAGAGCACACGU	81.5
target 3 U2A,G4U (mixed) RNA 1: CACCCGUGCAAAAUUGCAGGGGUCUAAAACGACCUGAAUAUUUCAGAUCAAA RNA 2: GGGAAUGGAUCCACAUCUACGAAUUCGUUUUUGAUCUGAAAUAUUCAUGACUGCAGAUCGGAAGAGCACACGU	1.98
target 1 del2,del16 (mixed) RNA 1: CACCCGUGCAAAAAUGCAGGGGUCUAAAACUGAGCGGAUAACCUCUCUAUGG RNA 2: GGGAAUGGAUCCACAUCUACGAAUUCGUACCAUAGGAGGUUAUCCGCUACCGAGAUCGGAAGAGCACACGU	82
target 1 G12A,A20U (mixed) RNA 1: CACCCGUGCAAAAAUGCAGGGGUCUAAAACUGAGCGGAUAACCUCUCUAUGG RNA 2: GGGAAUGGAUCCACAUCUACGAAUUCGUACCUUAGAGAGAUUAUCCGCUCACCGAGAUCGGAAGAGCACACGU	15.7
target 2 MT 5'PFS UCU 3'PFS AGC (mixed) RNA 1: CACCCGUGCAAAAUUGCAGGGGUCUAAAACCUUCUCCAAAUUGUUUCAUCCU RNA 2: GGGAAUGGAUCCACAUCUACGAAUUCUCUAGGAUGAAACAAUUUGGAGAAGAGCAGAUCGGAAGAGCACACGU	11
target 1 insC 3' of 14,insG 3' of 8 (mixed) RNA 1: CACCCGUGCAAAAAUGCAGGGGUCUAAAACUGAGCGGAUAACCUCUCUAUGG RNA 2: GGGAAUGGAUCCACAUCUACGAAUUCGUACCAUAGAGACGGUUAUGCCGCUCACCGAGAUCGGAAGAGCACACGU	65
target 1 C7G,U10C (mixed) RNA 1: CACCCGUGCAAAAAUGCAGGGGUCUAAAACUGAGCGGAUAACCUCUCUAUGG RNA 2: GGGAAUGGAUCCACAUCUACGAAUUCGUACCAUAGAGAGGUCAUGCGCUCACCGAGAUCGGAAGAGCACACGU	24.6
target 1 MT 5'PFS CUU 3'PFS CCC (mixed) RNA 1: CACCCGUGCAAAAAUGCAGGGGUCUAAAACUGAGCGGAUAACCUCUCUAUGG RNA 2: GGGAAUGGAUCCACAUCUACGAAUUCCUUCCAUAGAGAGGUUAUCCGCUCACCCAGAUCGGAAGAGCACACGU	80
target 1 A9G,A14G (mixed) RNA 1: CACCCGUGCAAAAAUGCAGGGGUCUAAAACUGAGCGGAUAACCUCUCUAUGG RNA 2: GGGAAUGGAUCCACAUCUACGAAUUCGUACCAUAGAGGGGUUGUCCGCUCACCGAGAUCGGAAGAGCACACGU	14.4
target 1 insC 3' of 17,insG 3' of 16 (mixed) RNA 1: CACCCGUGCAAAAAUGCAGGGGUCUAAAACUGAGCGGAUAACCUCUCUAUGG RNA 2: GGGAAUGGAUCCACAUCUACGAAUUCGUACCAUAGCAGGAGGUUAUCCGCUCACCGAGAUCGGAAGAGCACACGU	64

Data request: May I ask what Kd has been recorded for target 2 MT 5'PFS UAG 3'PFS UAC (mixed) RNA 1: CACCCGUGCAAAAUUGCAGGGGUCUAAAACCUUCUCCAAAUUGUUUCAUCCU RNA 2: GGGAAUGGAUCCACAUCUACGAAUUCUAGAGGAUGAAACAAUUUGGAGAAGUACAGAUCGGAAGAGCACACGU ?
Data returned: 2.65

Data request: Check target 1 MT 5'PFS CUU 3'PFS CUA (mixed) RNA 1: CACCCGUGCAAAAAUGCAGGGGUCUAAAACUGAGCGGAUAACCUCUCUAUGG RNA 2: GGGAAUGGAUCCACAUCUACGAAUUCCUUCCAUAGAGAGGUUAUCCGCUCACUAAGAUCGGAAGAGCACACGU too.
Data returned: 29.5

Data request: Same thing, different binder: target 3 insA 3' of 6,insG 3' of 1 (mixed) RNA 1: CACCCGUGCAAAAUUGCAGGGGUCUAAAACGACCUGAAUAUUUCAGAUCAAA RNA 2: GGGAAUGGAUCCACAUCUACGAAUUCGUUUUUGAUCUGAAAUAUUCAAGGUCGUGCAGAUCGGAAGAGCACACGU
Data returned: 32

Data request: target 1 insU 3' of 9,insA 3' of 3 (mixed) RNA 1: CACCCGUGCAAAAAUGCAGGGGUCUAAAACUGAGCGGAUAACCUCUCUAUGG RNA 2: GGGAAUGGAUCCACAUCUACGAAUUCGUACCAUAGAGAGGUUAUUCCGCUACACCGAGAUCGGAAGAGCACACGU , same question.
Data returned: 13.1

Data request: target 2 MT 5'PFS GGC 3'PFS AUU (mixed) RNA 1: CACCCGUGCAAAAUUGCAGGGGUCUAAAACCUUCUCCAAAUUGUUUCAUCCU RNA 2: GGGAAUGGAUCCACAUCUACGAAUUCGGCAGGAUGAAACAAUUUGGAGAAGAUUAGAUCGGAAGAGCACACGU ?
Data returned: 12.4
